system: Neuronal acetylcholine receptor subunit alpha-7 (Homo sapiens, UniProt P36544)
Sequence (P36544 whole entry): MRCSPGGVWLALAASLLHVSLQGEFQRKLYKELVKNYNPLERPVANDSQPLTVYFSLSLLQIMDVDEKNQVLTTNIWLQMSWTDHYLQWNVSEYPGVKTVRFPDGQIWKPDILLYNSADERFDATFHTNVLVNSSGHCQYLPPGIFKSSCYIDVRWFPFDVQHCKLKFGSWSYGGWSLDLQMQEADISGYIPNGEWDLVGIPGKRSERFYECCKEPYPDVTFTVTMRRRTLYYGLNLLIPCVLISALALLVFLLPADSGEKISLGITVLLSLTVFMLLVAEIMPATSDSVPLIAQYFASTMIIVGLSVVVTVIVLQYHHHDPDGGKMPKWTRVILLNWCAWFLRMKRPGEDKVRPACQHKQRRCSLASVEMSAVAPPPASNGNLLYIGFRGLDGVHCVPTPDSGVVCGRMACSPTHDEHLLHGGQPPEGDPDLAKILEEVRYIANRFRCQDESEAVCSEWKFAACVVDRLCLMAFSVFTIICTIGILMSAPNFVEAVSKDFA
experiment: Allosteric agonist activity at human alpha7 nAChR expressed in Xenopus oocytes after 20 secs by two-electrode voltage clamp method
endpoint: EC50 (µM)
Your answer is read as µM, so omit the unit and give the number.

Q) Data request, read-out EC50, for NS(=O)(=O)c1ccc2c(c1)[C@H]1C=CC[C@H]1[C@@H](c1ccc(Br)cc1)N2
A) 28
